# Tested on: Mycobacterium tuberculosis
# Assay method text: Antimicrobial activity against Mycobacterium tuberculosis H37Rv by Alamar blue assay
# Type: functional
Could you mark each record rule met if its IC90 falls strictly under 30 µM, and rule not met if it equals or exceeds it?

Solved cases (4 shown):
| Compound | Classification |
| --- | --- |
| NNC(=O)c1ccncc1 [ISONIAZID] | rule met |
| CC(C)c1ccc(N2C(=O)C3CN(C)C4(C(=O)c5ccccc5C4=O)C3C2=O)cc1 (configuration not stated) | rule not met |
| COc1ccccc1N1C(=O)C2CN(C)C3(C(=O)c4ccccc4C3=O)C2C1=O (configuration not stated) | rule not met |
| Cc1ccc(N2C(=O)C3CN(C)C4(C(=O)c5ccccc5C4=O)C3C2=O)cc1 (configuration not stated) | rule not met |

is_below(IC90, 30 µM) for CN1C(=O)C2CN(C)C3(C(=O)c4ccccc4C3=O)C2C1=O (configuration not stated) ?
rule not met

# TODO verify IC90 < 30 µM strictly for this compound: CN1CC2C(=O)N(C3CCCCC3)C(=O)C2C12C(=O)c1ccccc1C2=O (configuration not stated)
rule not met

Given the entry CN1CC2C(=O)N(c3ccc(Br)cc3)C(=O)C2C12C(=O)c1ccccc1C2=O (configuration not stated) , would its reported IC90 be below 30 µM?
rule met
